This section presents pKi values reported for UniProt:P35348 in the literature.
Sequence (P35348 whole entry): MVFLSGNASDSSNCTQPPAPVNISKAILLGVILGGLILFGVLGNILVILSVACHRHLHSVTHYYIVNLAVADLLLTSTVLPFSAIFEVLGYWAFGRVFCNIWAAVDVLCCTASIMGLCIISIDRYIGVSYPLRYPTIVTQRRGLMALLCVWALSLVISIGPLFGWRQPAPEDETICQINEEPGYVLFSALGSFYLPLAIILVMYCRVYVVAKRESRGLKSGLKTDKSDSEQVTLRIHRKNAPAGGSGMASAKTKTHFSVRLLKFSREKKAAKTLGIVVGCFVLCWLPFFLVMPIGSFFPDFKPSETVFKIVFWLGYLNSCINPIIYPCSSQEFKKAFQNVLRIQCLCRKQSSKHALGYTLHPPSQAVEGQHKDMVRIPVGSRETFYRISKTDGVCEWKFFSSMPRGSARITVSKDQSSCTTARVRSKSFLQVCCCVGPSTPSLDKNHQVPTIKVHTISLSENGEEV
# log scale: pKi equals minus log10 of the concentration in mol/L

Provide the documented pKi with UniProt:P35348 as the system for CO/C(O)=C1\C(C)=NC(C)=C(C(=O)OCCCN2CCC(c3ccccc3)(c3ccccc3)CC2)C1c1ccc([N+](=O)[O-])cc1 (configuration not stated)
9.49

Entry "COc1ccccc1N1CCN(CCNc2cc(-c3ccccc3)nn(C)c2=O)CC1" , system UniProt:P35348: what pKi was measured?
9.66

I'm curious: which pKi was measured for "CC(C)Oc1ccccc1N1CCN(CCN2C(=O)CC3(CCCC3)CC2=O)CC1" tested on UniProt:P35348?
8.45

Given the entry "Cc1ccc(C2(c3ccc(C)cc3)OC(=O)N(CCCN3CCC(C#N)(c4ccccc4C)CC3)C2=O)cc1" , what pKi was observed with UniProt:P35348?
7.11

Reported pKi for UniProt:P35348, given "COc1ccc(Cl)cc1N1CCN(CCCCNc2c(C(C)=O)c(C)nn(C)c2=O)CC1" ?
8.52

Please provide the recorded pKi for "COc1ccccc1N1CCN(CCCNc2cc(-c3ccccc3)nn(C)c2=O)CC1" , tested on UniProt:P35348.
8.59

Requested read-out pKi, target or system UniProt:P35348, entry "COc1cc2nc(N3CCC[C@H](NC4=CC(=O)c5ccccc5C4=O)C3)nc(N)c2cc1OC"
8.15

I'm curious: which pKi was measured for COc1ccccc1N1CCN(CCN(C(=O)C23C4C5C2C2C3C4C52I)c2ccccn2)CC1 (configuration not stated) tested on UniProt:P35348?
7.11

Test system UniProt:P35348; read-out pKi; what value for COc1cccc2c1CCCC2CCCN1CCN(c2ccccn2)CC1 (configuration not stated) ?
9.48

Could you share what pKi was measured for COC(=O)C1=C(C)NC(=O)N(C(=O)NCCCN2CCC(c3ccc(Cl)cc3)(c3ccc(Cl)cc3)CC2)C1c1ccc(F)c(F)c1 (configuration not stated) , tested on UniProt:P35348?
8.16

What is its pKi for UniProt:P35348? Entry: "COCC1=C(C(=O)OC)[C@H](c2ccc(F)c(F)c2)N(C(=O)N[C@H]2CC[C@@H](N3CCC(c4ccccn4)CC3)C2)C(=O)N1"
8.33

Return pKi measured with UniProt:P35348 given this molecule: COC(=O)C1=C(C)NC(=O)N(C(=O)NCCCN2CCC3(CCCc4ccccc43)CC2)C1c1ccc(F)c(F)c1 (configuration not stated)
9.40

Form field: pKi recorded for "COc1ccccc1N1CCN(CCn2c(=O)[nH]c3c(sc4ccc(NC(=O)CCCN(C)Cc5ccccc5)cc43)c2=O)CC1" with UniProt:P35348 (enter value)
8.16

// lookup pKi | system=UniProt:P35348 | key= "Fc1ccccc1N1CCN(CCCCNc2cc(-c3ccccc3)ccn2)CC1"
8.05

Please tell me: pKi of "COc1ccccc1N1CCN(CCCCNC(=O)CC2CCCCC2)CC1" , system UniProt:P35348?
7.18

Write down the reported pKi of CCOC(=O)[C@H]1CN(CCCCN2C(=O)c3cc(Cl)ccc3S2(=O)=O)CC[C@@H]1c1ccccc1 (racemic) , test system: UniProt:P35348.
7.00

For UniProt:P35348, provide pKi of "CC(C)Oc1ccccc1N1CCN([C@H]2CC[C@@H](NS(=O)(=O)c3ccc(OC(F)(F)F)cc3)CC2)CC1" please.
7.77

Recall the recorded pKi for c1ccc(OCCNCC[C@@H]2CO[C@H](C(c3ccccc3)c3ccccc3)O2)cc1 (relative stereo) with UniProt:P35348 and state it.
6.77

Which measured pKi belongs to CC(C)Oc1ccccc1OCCNCC1COC(c2ccccc2)(c2ccccc2)O1 (racemic) , tested on UniProt:P35348?
8.68

Form: Entry = "CS(=O)(=O)c1ccccc1CCCNCCOc1cc(F)ccc1Cl" | System = UniProt:P35348 | pKi = ____
7.30

Lookup: pKi / UniProt:P35348 / COC(=O)C1=C(C)NC(=O)N(C(=O)NCCCN2CCC(c3ccc(F)cc3)(c3ccc(F)cc3)CC2)C1c1ccc(F)c(F)c1 (configuration not stated)
9.70

Enter reported pKi observed with UniProt:P35348 for "Clc1cccc(N2CCN(CCCCNc3ccc(-c4ccccc4)cn3)CC2)c1Cl"
7.68

API: value(readout= pKi, system= UniProt:P35348, query= COc1cc2nc(N3CCN(C(=O)CCCCC4CCSS4)CC3)nc(N)c2cc1OC (configuration not stated) )
8.85

Request: pKi, test system UniProt:P35348, entry "O=C(CN1CCCCC1=O)NCCN1CCN(c2ccc(F)cc2OCC(F)(F)F)CC1"
6.89

Param readout = pKi; param system = UniProt:P35348; param query = "Clc1cccc(N2CCN(CCCCNc3nccc4ccccc34)CC2)c1Cl" ; response: value
7.22

Provide the documented pKi with UniProt:P35348 as the system for "COc1cccc([N+](=O)[O-])c1OCCNCCOc1ccccc1OCc1ccccc1"
8.95

Query the reported pKi for UniProt:P35348; item: "O=C(NCCCCN1CCN(c2cccc(Cl)c2Cl)CC1)c1ccc2ccccc2c1"
6.98

Recall the recorded pKi for "CC(=O)c1c(-c2ccccc2)nn(C)c(=O)c1NCCN1CCN(c2ccccc2F)CC1" with UniProt:P35348 and state it.
9.49

Item "COc1ccccc1OCCNCCOc1ccccc1OCc1ccccc1" with UniProt:P35348 - pKi?
8.50

Query the reported pKi for UniProt:P35348; item: "COc1cc2nc(N3CCN(C(=O)c4ccco4)[C@H]4CCCC[C@H]43)nc(N)c2cc1OC"
7.60

Notebook entry, UniProt:P35348 assay: pKi of "COc1ccccc1N1CCN(Cc2ccc(C=O)s2)CC1" = ?
6.24

Any idea what pKi came out for "COCC1=C(C(=O)OC)[C@H](c2ccc(F)c(F)c2)N(C(=O)N[C@@H]2CC[C@H](N3CCC(c4ccccn4)CC3)C2)C(=O)N1" on UniProt:P35348?
9.40

Tell me reported pKi for "Clc1cccc(N2CCN(CCCCNc3ccccn3)CC2)c1Cl" , tested with UniProt:P35348.
7.48

Give pKi (UniProt:P35348) of the following molecule: CC(C)Oc1ccccc1N1CCN(C2CCC(N3C(=O)c4ccc5ccc(F)cc5c4C3=O)CC2)CC1 (stereo in doubt; 6g)
8.41
